# Tested target: Coagulation factor X (Homo sapiens) (UniProt P00742)
# Sequence (P00742 41-179 limits assumed): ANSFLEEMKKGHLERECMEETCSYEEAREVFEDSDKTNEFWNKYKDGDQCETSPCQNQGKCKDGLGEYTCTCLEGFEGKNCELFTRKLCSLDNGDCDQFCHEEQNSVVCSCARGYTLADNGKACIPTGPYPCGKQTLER
# Sequence (P00742 235-488 limits assumed): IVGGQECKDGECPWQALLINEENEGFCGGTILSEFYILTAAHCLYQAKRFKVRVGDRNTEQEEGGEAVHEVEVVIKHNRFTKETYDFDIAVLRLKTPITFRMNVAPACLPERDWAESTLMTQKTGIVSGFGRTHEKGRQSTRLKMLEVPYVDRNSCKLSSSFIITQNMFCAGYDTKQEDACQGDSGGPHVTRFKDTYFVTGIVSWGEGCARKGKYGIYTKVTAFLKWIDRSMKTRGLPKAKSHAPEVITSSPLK
# Protocol details: Inhibition of human factor Xa (inhibitor concentration were 3.6-44 uM)
Response key: Fulfilled means K obs / 1 >= 4000 M⁻¹ s⁻¹; Not fulfilled means K obs / 1 < 4000 M⁻¹ s⁻¹.

(Q) Hello, I need to know if `CCOc1oc(=O)c2cc(NC(=N)N)ccc2c1Cl` has measured K obs / 1 not below 4000 M⁻¹ s⁻¹. Thanks!
(A) Fulfilled

(Q) Hello, I need to know if `C[C@H](N)C(=O)N[C@@H](C)C(=O)Nc1ccc2c(Cl)c(OCCSC(=N)N)oc(=O)c2c1` has measured K obs / 1 not below 4000 M⁻¹ s⁻¹. Thanks!
(A) Not fulfilled

(Q) Hello, I need to know if `N=C(N)SCCCOc1oc(=O)c2cc(NC(=O)Cc3ccccc3)ccc2c1Cl` has measured K obs / 1 not below 4000 M⁻¹ s⁻¹. Thanks!
(A) Not fulfilled

(Q) Hello, I need to know if `N=C(N)SCCOc1oc(=O)c2cc(NC(=O)[C@@H](N)Cc3ccccc3)ccc2c1Cl` has measured K obs / 1 not below 4000 M⁻¹ s⁻¹. Thanks!
(A) Not fulfilled

(Q) Hello, I need to know if `N=C(N)SCCOc1oc(=O)c2cc(NC(=O)NCc3ccccc3)ccc2c1Cl` has measured K obs / 1 not below 4000 M⁻¹ s⁻¹. Thanks!
(A) Not fulfilled

(Q) Hello, I need to know if `N=C(N)SCCOc1oc(=O)c2cc(NC(=O)Nc3ccccc3)ccc2c1Cl` has measured K obs / 1 not below 4000 M⁻¹ s⁻¹. Thanks!
(A) Fulfilled

(Q) Hello, I need to know if `N=C(N)SCCCOc1oc(=O)c2cc(N)ccc2c1Cl` has measured K obs / 1 not below 4000 M⁻¹ s⁻¹. Thanks!
(A) Not fulfilled

(Q) Hello, I need to know if `N=C(N)SCCCOc1oc(=O)c2cc(NC(=O)Nc3ccccc3)ccc2c1Cl` has measured K obs / 1 not below 4000 M⁻¹ s⁻¹. Thanks!
(A) Not fulfilled

(Q) Hello, I need to know if `CC(C)(C)OC(=O)N[C@H](Cc1ccccc1)C(=O)Nc1ccc2c(Cl)c(OCCSC(=N)N)oc(=O)c2c1` has measured K obs / 1 not below 4000 M⁻¹ s⁻¹. Thanks!
(A) Not fulfilled

(Q) Hello, I need to know if `N=C(N)SCCOc1oc(=O)c2cc(NC(=O)Cc3ccccc3)ccc2c1Cl` has measured K obs / 1 not below 4000 M⁻¹ s⁻¹. Thanks!
(A) Not fulfilled

(Q) Hello, I need to know if `N=C(N)SCCOc1oc(=O)c2cc(NC(=O)[C@H](N)Cc3ccccc3)ccc2c1Cl` has measured K obs / 1 not below 4000 M⁻¹ s⁻¹. Thanks!
(A) Not fulfilled

###

Kindly state half-life for each of the entries shown.
# Protocol details: Hydrolysis half life (t1/2)
# Format: ADME
Give the quantity in min, number only.

(Q) Report half-life for `N=C(N)SCCCOc1oc(=O)c2cc(NC(=O)NCc3ccccc3)ccc2c1Cl` please.
(A) 148

(Q) Report half-life for `N=C(N)SCCCOc1oc(=O)c2cc(N)ccc2c1Cl` please.
(A) 90

(Q) Report half-life for `N=C(N)SCCCOc1oc(=O)c2cc(NC(=O)Cc3ccccc3)ccc2c1Cl` please.
(A) 61

(Q) Report half-life for `C[C@H](NC(=O)Nc1ccc2c(Cl)c(OCCSC(=N)N)oc(=O)c2c1)c1ccccc1` please.
(A) 56

(Q) Report half-life for `N=C(N)SCCCOc1oc(=O)c2cc(NC(=O)[C@@H](N)Cc3ccccc3)ccc2c1Cl` please.
(A) 42

(Q) Report half-life for `N=C(N)SCCOc1oc(=O)c2cc(NC(=O)CCc3ccccc3)ccc2c1Cl` please.
(A) 39

(Q) Report half-life for `C[C@@H](NC(=O)Nc1ccc2c(Cl)c(OCCSC(=N)N)oc(=O)c2c1)c1ccccc1` please.
(A) 62

(Q) Report half-life for `CC(C)(C)OC(=O)N[C@@H](Cc1ccccc1)C(=O)Nc1ccc2c(Cl)c(OCCCSC(=N)N)oc(=O)c2c1` please.
(A) 51

(Q) Report half-life for `N=C(N)SCCOc1oc(=O)c2cc(NC(=O)[C@@H](N)Cc3ccccc3)ccc2c1Cl` please.
(A) 18

(Q) Report half-life for `CC(C)(C)OC(=O)N[C@H](Cc1ccccc1)C(=O)Nc1ccc2c(Cl)c(OCCSC(=N)N)oc(=O)c2c1` please.
(A) 42

(Q) Report half-life for `C[C@H](NC(=O)OC(C)(C)C)C(=O)N[C@@H](C)C(=O)Nc1ccc2c(Cl)c(OCCSC(=N)N)oc(=O)c2c1` please.
(A) 40

(Q) Report half-life for `N=C(N)SCCCOc1oc(=O)c2cc(NC(=O)[C@H](N)Cc3ccccc3)ccc2c1Cl` please.
(A) 46

(Q) Report half-life for `CC(C)(C)OC(=O)N[C@@H](Cc1ccccc1)C(=O)Nc1ccc2c(Cl)c(OCCSC(=N)N)oc(=O)c2c1` please.
(A) 39

(Q) Report half-life for `N=C(N)SCCCOc1oc(=O)c2cc(NC(=O)Nc3ccccc3)ccc2c1Cl` please.
(A) 148

(Q) Report half-life for `N=C(N)SCCOc1oc(=O)c2cc(NC(=O)Nc3ccccc3)ccc2c1Cl` please.
(A) 108

(Q) Report half-life for `CC(C)(C)OC(=O)N[C@H](Cc1ccccc1)C(=O)Nc1ccc2c(Cl)c(OCCCSC(=N)N)oc(=O)c2c1` please.
(A) 55

(Q) Report half-life for `CC(=O)Nc1ccc2c(Cl)c(OCCCSC(=N)N)oc(=O)c2c1` please.
(A) 68

(Q) Report half-life for `N=C(N)SCCCOc1oc(=O)c2cc(NC(=O)CCc3ccccc3)ccc2c1Cl` please.
(A) 66

(Q) Report half-life for `CC(=O)CCC(=O)Nc1ccc2c(Cl)c(OCCSC(=N)N)oc(=O)c2c1` please.
(A) 28

(Q) Report half-life for `N=C(N)SCCOc1oc(=O)c2cc(NC(=O)[C@H](N)Cc3ccccc3)ccc2c1Cl` please.
(A) 21

(Q) Report half-life for `N=C(N)SCCOc1oc(=O)c2cc(NC(=O)NC(c3ccccc3)c3ccccc3)ccc2c1Cl` please.
(A) 168

###

Kindly state K obs / 1 for each of the entries shown.
# Tested target: Prothrombin (Homo sapiens)
# Protocol details: Inhibition of human thrombin (inhibitor concentration 1.2-54 uM)
Give the quantity in M⁻¹ s⁻¹, number only.

(Q) Report K obs / 1 for `N=C(N)SCCOc1oc(=O)c2cc(NC(=O)Nc3ccccc3)ccc2c1Cl` please.
(A) 22400

(Q) Report K obs / 1 for `C[C@H](N)C(=O)N[C@@H](C)C(=O)Nc1ccc2c(Cl)c(OCCSC(=N)N)oc(=O)c2c1` please.
(A) 880

(Q) Report K obs / 1 for `C[C@H](NC(=O)OC(C)(C)C)C(=O)N[C@@H](C)C(=O)Nc1ccc2c(Cl)c(OCCSC(=N)N)oc(=O)c2c1` please.
(A) 970

(Q) Report K obs / 1 for `O=c1oc(Cl)c(Cl)c2ccccc12` please.
(A) 10

(Q) Report K obs / 1 for `N=C(N)SCCCOc1oc(=O)c2cc(NC(=O)NCc3ccccc3)ccc2c1Cl` please.
(A) 700

(Q) Report K obs / 1 for `N=C(N)SCCOc1oc(=O)c2cc(NC(=O)Cc3ccccc3)ccc2c1Cl` please.
(A) 6730

(Q) Report K obs / 1 for `N=C(N)SCCOc1oc(=O)c2cc(NC(=O)NCc3ccccc3)ccc2c1Cl` please.
(A) 11700

(Q) Report K obs / 1 for `CC(C)NC(=O)Nc1ccc2c(Cl)c(OCCSC(=N)N)oc(=O)c2c1` please.
(A) 5000

(Q) Report K obs / 1 for `CC(=O)CCC(=O)Nc1ccc2c(Cl)c(OCCSC(=N)N)oc(=O)c2c1` please.
(A) 1770

(Q) Report K obs / 1 for `N=C(N)SCCOc1oc(=O)c2cc(NC(=O)Nc3cccc4ccccc34)ccc2c1Cl` please.
(A) 5800

###

# Tested target: Coagulation factor XI (Homo sapiens) (UniProt P03951)
# Sequence (P03951 19-387 limits assumed): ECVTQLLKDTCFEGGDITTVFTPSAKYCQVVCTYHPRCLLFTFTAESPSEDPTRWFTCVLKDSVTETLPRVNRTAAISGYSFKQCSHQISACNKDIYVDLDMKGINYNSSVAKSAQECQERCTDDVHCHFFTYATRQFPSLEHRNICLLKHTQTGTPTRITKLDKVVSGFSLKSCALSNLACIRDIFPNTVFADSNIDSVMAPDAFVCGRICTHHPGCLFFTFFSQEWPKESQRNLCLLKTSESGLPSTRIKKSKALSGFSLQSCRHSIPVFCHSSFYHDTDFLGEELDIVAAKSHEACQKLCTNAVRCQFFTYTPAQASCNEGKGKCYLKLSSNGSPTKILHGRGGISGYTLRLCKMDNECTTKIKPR
# Sequence (P03951 388-625 limits assumed): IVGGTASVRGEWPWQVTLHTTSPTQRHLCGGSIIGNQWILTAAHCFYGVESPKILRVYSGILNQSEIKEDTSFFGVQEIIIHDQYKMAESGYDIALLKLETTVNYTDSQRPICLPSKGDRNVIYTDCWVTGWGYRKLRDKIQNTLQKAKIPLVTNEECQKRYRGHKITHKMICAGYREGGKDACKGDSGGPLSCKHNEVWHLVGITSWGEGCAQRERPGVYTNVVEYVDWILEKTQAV
# Protocol details: Compound was evaluated for inhibition of enzyme human coagulation factor XI (inhibitor concentration were 0.7-0.8 uM)
Just a reminder that ties go to label 0: only K obs / 1 strictly below 50000 M⁻¹ s⁻¹ counts as label 1.

(Q) Confirm or reject: K obs / 1 of `CCOc1oc(=O)c2cc(NC(=N)N)ccc2c1Cl` lies strictly below 50000 M⁻¹ s⁻¹
(A) label 0

(Q) Confirm or reject: K obs / 1 of `N=C(N)SCCOc1oc(=O)c2cc(NC(=O)Nc3ccccc3)ccc2c1Cl` lies strictly below 50000 M⁻¹ s⁻¹
(A) label 0

(Q) Confirm or reject: K obs / 1 of `N=C(N)SCCCOc1oc(=O)c2cc(NC(=O)Cc3ccccc3)ccc2c1Cl` lies strictly below 50000 M⁻¹ s⁻¹
(A) label 1

(Q) Confirm or reject: K obs / 1 of `N=C(N)SCCCOc1oc(=O)c2ccccc2c1Cl` lies strictly below 50000 M⁻¹ s⁻¹
(A) label 1

(Q) Confirm or reject: K obs / 1 of `N=C(N)SCCOc1oc(=O)c2cc(NC(=O)NCc3ccccc3)ccc2c1Cl` lies strictly below 50000 M⁻¹ s⁻¹
(A) label 0

(Q) Confirm or reject: K obs / 1 of `N=C(N)SCCCOc1oc(=O)c2cc(N)ccc2c1Cl` lies strictly below 50000 M⁻¹ s⁻¹
(A) label 1
